- System: HT29 colon
- protocolDetails: NCI-60 one-dose screen, 48 h (100 = growth as untreated, 0 = no growth, -100 = all killed)
- testSettings: 10 µM unless noted
This is part of a sample that, as a whole, favours compounds with a hit. Of some 83,000 tested, about 20% had one in any assay.
Lab note: anything with growth at or over 30% counts as Y; the rest go in N.

molecule | classLabel
CCN(CC)c1ccc2nc3ccc(N=Nc4ccc(O)cc4)cc3[n+](-c3ccccc3)c2c1 | N
C=CCNCCC#N | Y
O=C1C(=O)c2ccccc2C(O)=C1CCCc1ccc(C2CCCC2)cc1 | Y
C=CC1CN2CCC1CC2C(O)c1ccnc2ccc(OC)cc12 (stereo not given) | Y
CCCCCCCCCC(C)NC(=O)CCl (stereo not given) | Y
Nc1cc(N)c2nc(-c3ccccc3)c(NCCc3ccc(Cl)c(Cl)c3)nc2c1 | N
COc1cc(-c2nn(-c3ccc(NC(=O)c4ccc(Cl)c(Cl)c4)cc3)cc2-c2ccncc2)ccc1Cl | N
Cc1ccc(C(=O)Nc2ccc(CN3CCN(C)CC3)c(C(F)(F)F)c2)cc1C#Cc1cnc(N)c2ccc(C#N)cc12 | N
CC(=O)Nc1nc(C)c(C(=O)NNC(=O)Nc2ccccc2)s1 | Y
O=c1c(N=Nc2nccs2)c(-c2ccccc2)[nH]n1-c1nc(-c2ccccc2)cs1 | Y

---

- Test system: EKVX NSCLC
- protocolDetails: NCI-60 one-dose screen, 48 h (100 = growth as untreated, 0 = no growth, -100 = all killed)
- testSettings: 10 µM
- Protocol: Growth inhibition of the EKVX human Non-Small Cell Lung tumor cell line is measured as a screen for anti-cancer activity. Cells are grown in 96 well plates and exposed to the test compound for 48 hours. Compounds are tested at a single concentration, which is 10^-5 M for most compounds. The reported endpoint is percent growth (GI% or GIPRCNT), where numbers from 0 - 100% represent growth inhibition, and numbers from -100% - 0 represent cell death. […]
The panel holds about 83,000 compounds, 20% with a hit somewhere; the sample as a whole holds those more often. Active and inactive are the calls of the source. How the source made its calls: active means growth percent below 10; inactive means the rest.
Reported values of growth for individual entries
reportedMetric: growth

compound | reported
O=C1C(Cl)=C(Nc2ccc(Nc3ccccc3)c(NC3=C(Cl)C(=O)c4ccccc4C3=O)c2)C(=O)c2ccccc21 | 65.8% (inactive)
COc1ccc(/C=C(/C(=O)N2CCCCC2)c2cc(OC)c(OC)c(OC)c2)cc1 | 42.5% (inactive)
COc1ccccc1Nc1nnc(COc2ccc(CNC(=O)CCCC/C=C/C(C)C)cc2OC)o1 | 85% (inactive)
COC(=O)c1ccc2[nH]c(O)c(C(=Nc3ccc(N(C)C(=O)CN4CCN(C)CC4)cc3)c3ccc(CCO)cc3)c2c1 | 85.5% (inactive)
CCC(CCCN1C(=O)c2ccccc2C1=O)Nc1cc(OC)cc2c(C)ccnc12 (centres undefined) | 84.5% (inactive)
COC(=O)/C=C/c1cc(O)c2oc(-c3ccc(O)c(O)c3)c(C(=O)OC)c2c1 | 49.7% (inactive)
CC(=O)Nc1nc(C)c(C(=O)N/N=C/c2cccs2)s1 | 107% (inactive)
COc1cc(-c2nn(-c3ccc(NC(=O)Nc4ccc(Cl)c(Cl)c4)cc3)cc2-c2ccncc2)ccc1Cl | 33.6% (inactive)
CC(=O)/C(=C\c1c(-c2ccccc2)[nH]c2ccccc12)S(=O)(=O)c1ccccc1 | 27.9% (inactive)
O=C(Nc1cccc(Cn2c(=O)[nH]c3ccc(Oc4ncccn4)cc3c2=O)c1)c1ccc(Cl)cc1 | 52.3% (inactive)
CC1(C)Oc2cc3oc(=O)ccc3cc2C[C@@H]1OCCOS(=O)(=O)c1ccc(C#N)cc1 | 107% (inactive)
CCOC(=O)C1=C(c2ccccc2)NC(=O)NC1CN1C(=O)c2ccccc2C1=O (centres undefined) | 130% (inactive)
COC(=O)Nc1nc2ccc(C(=O)c3ccccc3N(C)C3COC3)cc2[nH]1 | 53.6% (inactive)
O=c1oc2ccc3ccccc3c2cc1-c1ccnc2[nH]c(=S)[nH]c(=O)c12 | 101% (inactive)
CCc1c(C)c2ccc(OCC(=O)N=Nc3c(O)[nH]c4ccccc34)c(C)c2oc1=O | 88.9% (inactive)
N#Cc1c(N)nc(Nc2nc3ccccc3[nH]2)nc1-c1ccc(Cl)cc1 | 109% (inactive)
O=C(CN1C(=O)NC(c2ccccc2)(c2ccccc2)C1=O)c1ccc(N2CCCC2)cc1 | 82.4% (inactive)
COc1cc([C@@H]2c3cc4c(cc3[C@H](O)[C@H]3COC[C@@H]23)OCO4)cc(OC)c1OC | 109% (inactive)
COc1ccc(Oc2[nH]n(C3=Nc4ccccc4Sc4ccccc43)c(=O)c2C#N)cc1 | 94.4% (inactive)
